Biological target: Bifunctional methylenetetrahydrofolate dehydrogenase/cyclohydrolase, mitochondrial (Homo sapiens, UniProt P13995)
Assay: Inhibition of recombinant MTHFD2 (unknown origin) using THF as substrate incubated for 30 mins in presence of NAD
reported_metric: IC50 (nM)

>>> print(df.to_string())
                                  structure  unit_text  numeric_result
0  Cc1cc(C(=O)N2CCc3c(c(=O)oc4c(C)c(N5CCN(C)CC5)ccc34)C2)ccc1NS(C)(=O)=O         nM             530
1  Cc1c(OCCN(C)C)ccc2c3c(c(=O)oc12)CN(C(=O)c1ccc2c(c1)CS(=O)(=O)N2)CC3         nM              53
2  Cc1c(OCCN(C)C)ccc2c3c(c(=O)oc12)CN(C(=O)c1ccc(C(=O)O)cc1)CC3         nM              49
3  CN(C)Cc1ccc(-c2ccc3c4c(c(=O)oc3c2)CN(C(=O)c2ccc(C(=O)O)cc2)CC4)cc1         nM             340
4  Cc1c(N2CCN(C)CC2)ccc2c3c(c(=O)oc12)CN(C(=O)c1cc(Cl)cc(NS(C)(=O)=O)c1)CC3         nM              89

[P] Cc1c(N2CCN(C)CC2)ccc2c3c(c(=O)oc12)CN(C(=O)c1ccc(NS(C)(=O)=O)c(F)c1)CC3
[Q] CN1CCN(c2ccc3c4c(c(=O)oc3c2)CN(C(=O)c2ccc(C(=O)O)cc2)CC4)CC1
[R] Cc1c(N2CCN(C)CC2)ccc2c3c(c(=O)oc12)CN(C(=O)c1ccc(NS(C)(=O)=O)cc1)CC3
[S] CN(C)c1ccc(-c2ccc3c4c(c(=O)oc3c2)CN(C(=O)c2ccc(C(=O)O)cc2)CC4)cc1
[T] Cc1cccc2oc(=O)c3c(c12)CCN(C(=O)c1ccc(C(=O)O)cc1)C3
q: Order the items by recorded IC50; the first position goes to the largest value. Put the labels in the requested order and list them out.
a: S, T, Q, R, P
(S: 3800 nM, T: 1300 nM, Q: 320 nM, R: 200 nM, P: 38 nM)

[a] CN(C)CCCOc1ccc2c3c(c(=O)oc2c1)CN(C(=O)c1ccc(C(=O)O)cc1)CC3
[b] Cc1c(N2CCN(C)CC2)ccc2c3c(c(=O)oc12)CN(C(=O)c1ccc(NS(C)(=O)=O)c(Br)c1)CC3
[c] Cc1c(N2CCN(C)[C@H](C)C2)ccc2c3c(c(=O)oc12)CN(C(=O)c1ccc(NS(C)(=O)=O)c(Cl)c1)CC3
q: Order the items by recorded IC50; the first position goes to the largest value. Put the labels in the requested order and list them out.
a: a, c, b

[I] CN1CCC(Oc2ccc3c4c(c(=O)oc3c2)CN(C(=O)c2ccc(C(=O)O)cc2)CC4)CC1
[II] Cc1c(N2CCN(C)CC2)ccc2c3c(c(=O)oc12)CN(C(=O)c1ccc2c(c1)CS(=O)(=O)N2)CC3.O=C(O)C(F)(F)F
q: Of I and II , which carries the smaller reported IC50 figure? Please indicate the selected item by its label.
a: II

----------
Test: Lipophilicity, logP of compound
Assay type: physicochemical
Conditions: octanol/water
reported_metric: logP

>>> df
                                  structure  numeric_result
0  Cc1c(N2CCN(C)CC2)ccc2c3c(c(=O)oc12)CN(C(=O)c1ccc(NS(C)(=O)=O)c(F)c1)CC3             1.7
1  Cc1c(N2CCN(C)[C@@H](C)C2)ccc2c3c(c(=O)oc12)CN(C(=O)c1ccc(NS(C)(=O)=O)c(OC(F)(F)F)c1)CC3             2.1
2  Cc1c(N2CCN(C)[C@H](C)C2)ccc2c3c(c(=O)oc12)CN(C(=O)c1ccc(NS(C)(=O)=O)c(Cl)c1)CC3               2
3  COc1cc(C(=O)N2CCc3c(c(=O)oc4c(C)c(N5CCN(C)CC5)ccc34)C2)ccc1NS(C)(=O)=O             1.6
4  Cc1cc(C(=O)N2CCc3c(c(=O)oc4c(C)c(N5CCN(C)CC5)ccc34)C2)ccc1NS(C)(=O)=O             1.8
5  Cc1c(N2C[C@@H](C)N(C)[C@@H](C)C2)ccc2c3c(c(=O)oc12)CN(C(=O)c1ccc(NS(C)(=O)=O)c(Cl)c1)CC3             2.2
6  Cc1c(N2CCN(C)CC2)ccc2c3c(c(=O)oc12)CN(C(=O)c1ccc2c(c1)CS(=O)(=O)N2)CC3.O=C(O)C(F)(F)F             1.6

----------
Test: Lipophilicity, logD of compound
Type: physicochemical
Conditions: octanol/water
reported_metric: logD

>>> df
                                  structure  reported_metric  numeric_result
0  Cc1c(N2C[C@@H](C)N(C)[C@@H](C)C2)ccc2c3c(c(=O)oc12)CN(C(=O)c1ccc(NS(C)(=O)=O)c(Cl)c1)CC3             logD             1.7

[P] Cc1c(N2CCN(C)[C@@H](C)C2)ccc2c3c(c(=O)oc12)CN(C(=O)c1ccc(NS(C)(=O)=O)c(OC(F)(F)F)c1)CC3
[Q] Cc1c(N2CCN(C)CC2)ccc2c3c(c(=O)oc12)CN(C(=O)c1ccc(NS(C)(=O)=O)c(Cl)c1)CC3
q: Among P and Q , which shows a numerically higher logD result? Please indicate the selected item by its label.
a: P

----------
Assay: Solubility of compound in pH 6.8
Assay type: physicochemical
Settings: buffer
reported_metric: solubility (µg/mL)

[1] Cc1c(N2CCN(C)[C@@H](C)C2)ccc2c3c(c(=O)oc12)CN(C(=O)c1ccc(NS(C)(=O)=O)c(OC(F)(F)F)c1)CC3
[2] Cc1c(N2CCN(C)CC2)ccc2c3c(c(=O)oc12)CN(C(=O)c1ccc(NS(C)(=O)=O)c(Cl)c1)CC3
q: Of 1 and 2 , which carries the smaller reported solubility figure? Please indicate the selected item by its label.
a: 2
(2: 120 µg/mL, 1: 630 µg/mL)

----------
Target: Bifunctional methylenetetrahydrofolate dehydrogenase/cyclohydrolase, mitochondrial (Homo sapiens)
Sequence (P13995 whole entry): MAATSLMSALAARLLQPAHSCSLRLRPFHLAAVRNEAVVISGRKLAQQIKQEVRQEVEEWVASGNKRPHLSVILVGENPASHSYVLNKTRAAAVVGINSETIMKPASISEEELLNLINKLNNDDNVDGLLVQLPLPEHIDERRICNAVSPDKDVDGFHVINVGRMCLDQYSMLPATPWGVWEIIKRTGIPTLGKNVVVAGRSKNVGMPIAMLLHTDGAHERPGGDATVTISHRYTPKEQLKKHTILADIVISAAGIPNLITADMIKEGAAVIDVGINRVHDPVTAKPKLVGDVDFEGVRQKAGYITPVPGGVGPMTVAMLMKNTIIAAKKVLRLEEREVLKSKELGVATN
Assay: Inhibition of recombinant MTHFD2 (unknown origin) using THF as substrate incubated for 30 mins in presence of NAD
reported_metric: IC50 (nM)

>>> print(df.to_string())
                                  structure  numeric_result
0  COc1cc(C(=O)N2CCc3c(c(=O)oc4c(C)c(N5CCN(C)CC5)ccc34)C2)ccc1NS(C)(=O)=O             400
1  CN(C)CCOc1ccc2c3c(c(=O)oc2c1)CN(C(=O)c1ccc(C(=O)O)cc1)CC3             340
